biological target: Transcription factor AP1 (Homo sapiens, UniProt P01100+P05412); assay: Inhibition of c-FOS/AP1 (unknown origin)
Sequence (P05412 whole entry): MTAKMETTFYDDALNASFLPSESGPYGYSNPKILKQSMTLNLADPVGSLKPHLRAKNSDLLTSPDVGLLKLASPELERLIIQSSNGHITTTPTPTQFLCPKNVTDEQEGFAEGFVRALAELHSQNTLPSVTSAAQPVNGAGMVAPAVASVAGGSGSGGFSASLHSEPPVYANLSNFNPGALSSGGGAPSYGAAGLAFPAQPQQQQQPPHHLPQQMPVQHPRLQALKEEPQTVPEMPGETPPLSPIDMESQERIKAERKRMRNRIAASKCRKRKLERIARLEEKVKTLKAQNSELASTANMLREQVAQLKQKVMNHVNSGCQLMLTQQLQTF
Sequence (P01100 whole entry): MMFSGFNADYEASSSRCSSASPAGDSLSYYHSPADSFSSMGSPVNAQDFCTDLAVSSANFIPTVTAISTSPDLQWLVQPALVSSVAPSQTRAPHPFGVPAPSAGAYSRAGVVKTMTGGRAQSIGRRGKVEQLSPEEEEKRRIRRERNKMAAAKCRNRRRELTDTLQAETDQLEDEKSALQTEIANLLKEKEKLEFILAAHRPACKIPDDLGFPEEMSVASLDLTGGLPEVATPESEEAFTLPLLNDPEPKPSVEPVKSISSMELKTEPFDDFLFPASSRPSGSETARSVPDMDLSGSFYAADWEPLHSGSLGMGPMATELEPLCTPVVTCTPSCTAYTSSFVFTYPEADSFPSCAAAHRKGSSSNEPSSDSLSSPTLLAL
Bridge positions count the residues as written; N and C are the ends. Peptide text beside a SMILES is read from it.
measured-attribute: pIC50
Scale: negative log10 of molar concentration, which is what pIC50 denotes.

O=C(O)CCc1cc(C(=O)c2ccc(OC3CCCC3)cc2O)ccc1OCc1ccc2c(O)noc2c1 ... 3.70

Moving on to another molecule below.
Task: # pIC50 lookup, item CC(=O)N[C@H]1CSSC[C@@H](C(N)=O)NC(=O)CNC(=O)[C@H](CC(=O)O)NC(=O)[C@H](C)NC(=O)[C@H](CC(C)C)NC(=O)[C@H](CC(=O)O)NC(=O)[C@H](CC(C)C)NC(=O)[C@H](CCC(N)=O)NC(=O)CNC1=O (Ac-CGQLDLADGC-NH2; disulfide 1-10)
Result: 5.10

###

molecular target: c-Myc/Max (Homo sapiens, UniProt P01106+P61244); experiment: Inhibition of c-Myc/Max (unknown origin) DNA-binding activity; assay type: protein-complex assay
Sequence (P01106 whole entry): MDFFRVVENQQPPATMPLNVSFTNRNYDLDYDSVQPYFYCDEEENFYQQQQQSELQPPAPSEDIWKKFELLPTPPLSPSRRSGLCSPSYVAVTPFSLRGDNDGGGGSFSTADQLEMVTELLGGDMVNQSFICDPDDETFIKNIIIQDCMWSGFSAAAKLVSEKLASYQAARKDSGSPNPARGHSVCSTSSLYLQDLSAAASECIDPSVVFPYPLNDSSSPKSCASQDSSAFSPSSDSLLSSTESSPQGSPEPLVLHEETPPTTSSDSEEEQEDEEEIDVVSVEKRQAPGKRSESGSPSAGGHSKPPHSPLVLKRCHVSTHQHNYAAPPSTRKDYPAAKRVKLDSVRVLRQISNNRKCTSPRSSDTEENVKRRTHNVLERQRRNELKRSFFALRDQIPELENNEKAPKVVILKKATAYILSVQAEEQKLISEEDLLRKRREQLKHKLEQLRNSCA
Sequence (P61244 whole entry): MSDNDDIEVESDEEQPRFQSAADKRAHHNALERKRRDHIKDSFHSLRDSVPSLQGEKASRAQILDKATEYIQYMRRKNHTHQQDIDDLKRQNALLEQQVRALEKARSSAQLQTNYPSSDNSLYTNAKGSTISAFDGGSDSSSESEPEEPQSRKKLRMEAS
measured-attribute: pIC50
Just the number, please; pIC50 means minus log10 of the concentration in mol/L.

COc1ccc(CNC(=O)c2cc3nc(-c4cccs4)cc(C(F)(F)F)n3n2)cc1 ... 4.52

Task: Look up pIC50 for this compound: CCOC(=O)c1cnn(-c2ccccc2)c1NC(=O)c1cc2nc(-c3ccco3)cc(C(F)(F)Cl)n2n1
Result: 4.40

Taken from ChEMBL document CHEMBL3217750.
